growth inhibition values, listed per item
Assay: NCI Yeast Anticancer Drug Screen. Data for the mec2-1 strain (AID 157)
Conditions: S. cerevisiae mec2-1 strain, at 50.0 µM, stronger effect = higher value
This is part of a sample that, as a whole, favours compounds with a hit. Of some 79,000 tested, about 15% had one in any assay.
Your answer should be a plain number; it is taken to be in %.

>>> measuredresult("CNC(=S)N(C)/N=C/c1ccccc1")
2.4
>>> measuredresult("CC(=O)Nc1ccc(/C=N/Nc2c3ccccc3nc3ccccc23)cc1")
13.8
>>> measuredresult("O=C(Cc1nccc2c1[nH]c1ccccc12)OC1C#CCSCC#C/C=C\\1 (stereo not given)")
17.8
>>> measuredresult("CC(C)(N)COC(=O)c1ccc([N+](=O)[O-])cc1")
-23.7
>>> measuredresult("N#CC12CCC(CC1)CC2Cl (stereo not given)")
8.45
>>> measuredresult("NCCCn1[nH]c(=O)c2ncccc2c1=O")
-28.8
>>> measuredresult("O=C(CCCc1ccccc1)OCC(=O)c1ccc(-c2ccccc2)cc1")
6.45
>>> measuredresult("C=Cc1ccc(C)[n+](C[Si](C)(C)O[Si](C)(C)C[n+]2cc(C=C)ccc2C)c1")
-11.1

Incoming: For the molecule O=c1c2ccccc2nc(-c2ccccc2)n1NC(=S)Nc1cccc(Cl)c1 , give its measured growth inhibition value.
Outgoing: -27.1

Incoming: For the molecule CCCCCCCCCCOc1ccc(C2=C(c3ccccc3)C(=O)C(c3ccccc3)=C2c2ccccc2)cc1 , give its measured growth inhibition value.
Outgoing: 10.4

###

Assay: NCI Yeast Anticancer Drug Screen. Data for the mlh1 rad18 strain (AID 175)
Conditions: S. cerevisiae mlh1 rad18 strain growth inhibition; at 50.0 µM; stronger effect = higher value
The panel holds about 79,000 compounds, 15% with a hit somewhere; the sample as a whole holds those more often.
recordedMetric: growth inhibition (%)
Your answer should be a plain number; it is taken to be in %.

>>> measuredresult("COC(=O)c1ccc(C=O)[nH]1")
7.25
>>> measuredresult("Cc1cccc(C)c1N=O")
-16.1
>>> measuredresult("O=C(CCCN1CCC2(CC1)NC(=O)c1ccccc1O2)c1ccc(F)cc1")
21.7
>>> measuredresult("O=C(NC1CCCCC1)Oc1ccc[nH]c1=O")
-1.25
>>> measuredresult("[O-][n+]1c2ccccc2nn1-c1ccccc1")
-13.8
>>> measuredresult("CC(=O)OC1CC(OC(C)=O)C(OC(C)=O)C(C)O1 (stereo not given)")
5.45

Incoming: For the molecule ClCC(OCc1ccccc1)OCc1ccccc1 , give its measured growth inhibition value.
Outgoing: 17.1

Incoming: For the molecule OC(CC1CCCCN1)c1ccc2c(c1)oc1ccccc12 (stereo not given) , give its measured growth inhibition value.
Outgoing: 75.6

Incoming: For the molecule N#Cc1c(-c2ccccc2)nc(-c2ccccc2)sc1=S , give its measured growth inhibition value.
Outgoing: 73.8

Incoming: For the molecule Nc1nc(Cl)cc(NCCCNc2cc(Cl)nc(N)n2)n1 , give its measured growth inhibition value.
Outgoing: 4.35

###

Experiment: NCI Yeast Anticancer Drug Screen. Data for the rad50 strain (AID 155);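 also: 0% = growth of vehicle-only cultures of the same strain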
Details: S. cerevisiae rad50 strain growth inhibition; at 50.0 µM
About 79,000 compounds went through this panel and 15% of them were active in at least one assay; those are over-represented in the sample as a whole. Activity calls are given as the source filed them. No stated cut-off is given here; in the data, active means growth inhibition above about 70%; inactive means the rest.
Write down one outcome, taken from active, inactive

Example entries and their recorded answers appear below.
>>> assignedlabel("CC(=O)OCC1OC(n2ccc(=O)[nH]c2=O)C(NC(=O)C(F)(F)F)C(OC(C)=O)C1OC(C)=O (stereo not given)")
"inactive"
>>> assignedlabel("O=C1c2ccccc2C(=O)N1C1Nc2ccccc2N1")
"inactive"
>>> assignedlabel("CC(C)(C)[Si](C)(C)OCC1CCC(n2cnc3c(N)ncnc32)O1 (stereo not given)")
"inactive"
>>> assignedlabel("O=C(O)COc1cccc([N+](=O)[O-])c1")
"inactive"
>>> assignedlabel("Cn1c(=O)c2c(nc(N)n2C)n(C)c1=O")
"inactive"
>>> assignedlabel("Cc1cc(Cc2cc(Cc3cc(C)cc(C(C)(C)C)c3O)c(C)cc2C)c(O)c(C(C)(C)C)c1")
"inactive"
>>> assignedlabel("COC(=O)c1cc2ccccc2n1C")
"inactive"
>>> assignedlabel("C[n+]1ccc2ccccc2c1C#N")
"inactive"

Incoming: Please state the recorded outcome for this molecule: CCCc1cc2c3c(c(=O)oc2cc1O)CCCC3
Outgoing: active

Incoming: Please state the recorded outcome for this molecule: COc1ccc(NC(=O)Nc2ccc(NC(C)=O)cc2)c(OC)c1
Outgoing: inactive

Value source: PubChem BioAssay (NCI)
